Numbers sourced from patent US9278942B2.

Target Entity: human AR (Homo sapiens, UniProt P10275)
Construct: expressed in transfected cells; host or cells: COS-1
Sequence (P10275 whole entry): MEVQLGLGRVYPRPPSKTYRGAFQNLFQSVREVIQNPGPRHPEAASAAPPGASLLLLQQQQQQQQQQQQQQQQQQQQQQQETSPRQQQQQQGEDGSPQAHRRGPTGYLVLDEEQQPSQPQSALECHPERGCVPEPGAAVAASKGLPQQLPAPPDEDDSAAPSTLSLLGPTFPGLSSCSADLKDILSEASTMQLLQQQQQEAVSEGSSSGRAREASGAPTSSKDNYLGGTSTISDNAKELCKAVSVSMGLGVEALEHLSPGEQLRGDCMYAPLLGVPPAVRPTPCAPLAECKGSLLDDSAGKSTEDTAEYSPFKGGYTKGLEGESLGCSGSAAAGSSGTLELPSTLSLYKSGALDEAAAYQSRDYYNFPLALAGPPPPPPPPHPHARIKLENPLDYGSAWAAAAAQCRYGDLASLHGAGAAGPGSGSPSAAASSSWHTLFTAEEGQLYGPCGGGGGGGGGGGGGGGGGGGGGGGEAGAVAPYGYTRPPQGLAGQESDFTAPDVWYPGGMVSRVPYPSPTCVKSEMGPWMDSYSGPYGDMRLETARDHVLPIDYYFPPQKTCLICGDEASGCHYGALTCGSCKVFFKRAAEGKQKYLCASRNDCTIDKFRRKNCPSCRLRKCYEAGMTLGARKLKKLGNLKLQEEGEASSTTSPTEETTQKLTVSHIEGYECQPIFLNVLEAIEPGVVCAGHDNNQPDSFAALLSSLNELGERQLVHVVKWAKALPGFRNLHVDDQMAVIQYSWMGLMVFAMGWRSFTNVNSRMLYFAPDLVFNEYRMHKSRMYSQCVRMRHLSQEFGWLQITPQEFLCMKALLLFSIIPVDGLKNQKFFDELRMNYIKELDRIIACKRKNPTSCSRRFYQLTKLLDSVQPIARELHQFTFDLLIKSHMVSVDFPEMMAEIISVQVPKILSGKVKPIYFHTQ
Assay Procedure: Competitive AR binding assay against [3H]-R1881 in transiently transfected COS-1 cells
Measurement Conditions: Table 1; compound 13.4 μM; [3H]-R1881 1.34 nM; complete inhibition equals 100%
A collection of compounds and their measured Inhibition of [3H]-R1881 binding at 1.34 nM ± S.D.
Express your answer in %, writing the number without its unit.

Field: example entries. Status: answers known.
Clc1cccc(C2=NOC3CCCCC23)c1 (single isomer, unassigned) [Example 31b] :: 0
CCCCN1C(Cc2ccccc2)=NOC1(C)Cc1ccccc1 (centres unmarked) [Example 55b] :: 32.7
Clc1ccccc1C1=NOC2CCCCC12 (single isomer, unassigned) [Example 30a] :: 30.2
CC(C)CN1C(c2ccc([N+](=O)[O-])cc2)=NOC1(C)Cc1ccccc1 (single isomer, unassigned) [Example 61b] :: 0

Ask | Requested read-out: Inhibition of [3H]-R1881 binding at 1.34 nM ± S.D.. Entry: Clc1ccc(C2=NOC3CCCCC23)cc1 (single isomer, unassigned) [Example 32a]
Reply | 30.5
